Assignment: determine reported binding signal (flow cytometry, %) for the given binders.
target: T1, protein A56 of the oncolytic virus OTS-412 (vaccinia virus (OTS-412), UniProt P08714 17-315)
T1 construct: also called OTS-412-A56; protein A56 variant
T1 chain: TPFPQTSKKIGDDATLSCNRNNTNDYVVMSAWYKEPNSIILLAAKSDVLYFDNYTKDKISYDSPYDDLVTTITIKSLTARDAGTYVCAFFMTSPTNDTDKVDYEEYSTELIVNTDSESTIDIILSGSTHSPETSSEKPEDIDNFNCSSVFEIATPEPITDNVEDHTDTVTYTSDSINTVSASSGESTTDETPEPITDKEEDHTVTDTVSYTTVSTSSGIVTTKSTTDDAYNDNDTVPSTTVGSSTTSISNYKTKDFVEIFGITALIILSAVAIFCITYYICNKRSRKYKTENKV
test_details: flow cytometry, A549 cells treated with OTS-412

# binder, metric_name, result
data = [
    ("A56-01F12 (Ab08) (antibody, V domains shown) VH: QVQLVESGGEVKKPGSSVKVSCKASGGSFSTYAISWVRQAPGQGLEWMGRIIPISDIRNYAQKFQGRVTLTADRATSTAYMELSSLRSEDTAVYYCAKGGRLLSTHFDYWGQGTLVTVSS VL: QLVLTQPPSVSAAPGQKVTISCSGSSSNIGNNYVSWYQQLPGTAPKLLIYDDDKRPSGIPDRFSGSKSGTSATLGITGLQTGDEADYYCGTWHSGLSAGVVFGGGTKLTVL", "binding signal (flow cytometry, %)", "≥ 90%"),
    ("A56-02B01 (Ab14) (antibody, V domains shown) VH: QVQLVQSGGGVVQPGRSLRLSCAASGFTFSNYGMHWVRQAPGKGLEWMAFIWFDGSNKFYADSVKGRFTVSRDNSKNTLFLQMNSLRAEDTAVYYCAKAAHLWGAFDIWGQGTMVTVSS VL: DIQMTQSPDTLSLSPGERATLSCRASQSVSSYLAWYQQKPGQAPRLLIYGASNRATGIPARFSGSGSGTDFALTIGRLEPEDFAVYYCQQYATSPLSFGGGTKVEIK", "binding signal (flow cytometry, %)", "≥ 90%"),
]

Sure, the documented binding signal (flow cytometry, %) for A56-44G01 (Ab55) (antibody, V domains shown) VH: QVQLVESGGGVVQPGRSLRLSCAASGFTFSSYAMHWVRQAPGKGLEWVAVISYDGSNKYYADSVKGRFTISRDNSKNTLYLQMNSLRAEDTAVYYCAKDLWGRVGALVGALDLWGQGTMITVSS VL: SYELTQGPSLSVSPGQTANIICSGDNLRTKYVSWYQQKPGQSPILVIYQDTRRPSGIPARFSGSNSGNTATLTISGTQAMDEADYYCQAWDSGNYVFGTGTKVTVL is ≥ 90%
